# key: entry, value: melting point

Consider the following illustrative entries.
O=C1CN(C(=O)COc2cc(-c3ccccc3)nc3ccccc23)CCN1 ... 215 °C
CC(C)(C)C1=C(c2ccc(C(=O)N3CCOCC3)c(O)c2)OCC1(C)C ... 141 to 142 °C
COc1ccc(N2C(=O)C(=C3CCCN3C)c3ccccc32)cc1 ... 90 to 93 °C
CCCCCCCCCCCN=C=S ... 71 to 72 °C
O=C1CC(NCc2ccccc2)C(=O)N1Cc1ccccc1 (stereo not given) ... 60 to 63 °C
Oc1ccc(-c2cc3ncccc3cn2)cc1 ... 219 to 221 °C
Cn1cc(-c2cc3nccnc3[nH]2)cn1 ... 232 to 234 °C
O=[N+]([O-])c1cccc(Oc2cccc3cccnc23)c1 ... 133 to 134 °C

Noted for Cc1cc(C(=O)N[C@H]2CC[C@H](CCN3CCN(c4nccc5c4OCC5)CC3)CC2)on1 : its melting point reads 199 °C

Noted for CC(=O)C(=NO)C(=O)OC(C)(C)C : its melting point reads 55 to 63 °C

Noted for CNCCN(C)C(=O)OC(Cc1ccccc1)C(=O)N(C)C(Cc1c[nH]cn1)C(=O)NC(CC1CCCCC1)C(O)CCC(C)C (stereo not given) : its melting point reads 65 to 68 °C

Noted for Cc1oc(-c2ccc(C(F)(F)F)cc2)nc1CC#N : its melting point reads 85 to 86 °C

Noted for Cn1c(CC(=O)O)ccc1C(=O)c1cccc(Cl)c1 : its melting point reads 165 °C

Noted for C=Cc1cnc(Nc2ccc(C#N)cc2)nc1Nc1c(C)cc(C)cc1C : its melting point reads 237 to 242 °C

Noted for CCSCCOC(=O)C(Br)=Cc1cc(-n2c(=O)cc(C(F)(F)F)n(C)c2=O)ccc1Cl : its melting point reads 118 to 120 °C

Noted for CC(C)CCCC(C)C1CCC2C3CC=C4CC(OC(=O)C(C)(C)COP(=O)(O)OCCBr)CCC4(C)C3CCC12C (stereo not given) : its melting point reads 98 °C

Noted for CCOc1cc2c(cc1OC)C(c1ccc(NS(=O)(=O)c3ccc(C)cc3)cc1)=N[C@H]1CCN(C)C[C@@H]21 : its melting point reads 207 to 219 °C

Noted for O=c1[nH]c2ccc(Cl)cc2n1CCCl : its melting point reads 164 °C

----------
# key: entry, value: melting point

O=C(O)[C@@H]1CN(C(=O)OCc2ccccc2)CCN1C(=O)N1c2ccccc2CCc2ccccc21 ... 185 °C
COc1ccc2cc(C(=O)CNC(=O)c3ccccc3)ccc2c1 ... 172 to 174 °C
CCOC(=O)[C@@H]1OC(c2ccc(O)c(OCC)c2)O[C@H]1C(=O)OCC ... 78 to 80 °C
COC[C@H](Cc1ccccc1)NC(=O)[C@@H](CC(=O)OCc1ccccc1)NC(=O)OC(C)(C)C ... 60 to 63 °C
CCOC(=O)c1cn(C2CC2)c2nc(N3CCN(C(=O)OCC)CC3)c(F)cc2c1=O ... 184 to 186 °C

Proceed to the following item.
Noted for CCCCNC1NC(=O)N(c2ccc(O)cc2)C(=O)N1 : its melting point reads 263 to 265 °C

----------
recordedEndpoint: melting point

Noted for CC1(C)CCC(C)(C)c2cc3c(cc21)CCc1nc(-c2ccc(C(=O)O)cc2)sc1-3 : its melting point reads 275 to 278 °C

Noted for O=C(O)Cc1c(-c2ccco2)nn(-c2ccccc2)c1-c1ccco1 : its melting point reads 199 to 202 °C

Noted for Cc1cc2c(c(C)c1NCc1ccccc1)C(c1ccc(C(C)C)cc1)CO2 (centres undefined) : its melting point reads 82 to 83 °C
